The measured values listed here are drawn from the supplement of paper PMC13207355.

Test system: E21 (patient-derived glioblastoma stem cells of mesenchymal subtype);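 further: cell Painting imaging in 384-well plates, CellProfiler features reduced to at least 20 principal components, Euclidean distance versus same-plate DMSO vehicle wells (0.1% v/v), median over six images per well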
Assay: phenotypic distance (Euclidean, principal components) from DMSO controls (arbitrary units); higher = stronger morphological change
Conditions: 3000 nM; exposure time: 72 h
Where a name gives a salt, the structure may show the parent alone.

# Molecule, phenotypic distance
rows = [
    ("NC1CCN(c2nc3c(cc2F)c(=O)c(C(=O)O)cn3-c2ccc(F)cc2F)C1 (centres undefined) [Tosufloxacin hydrochloride]", 0.725),
    ("CC(=O)OC[C@H]1O[C@@H]([S-])[C@H](OC(C)=O)[C@@H](OC(C)=O)[C@@H]1OC(C)=O.CCP(CC)CC.[Au+] [Auranofin]", 5.54),
    ("CC1(C(=O)O)C2CCC(O2)C1(C)C(=O)O (centres undefined) [Cantharidic Acid]", 2.17),
    ("Cc1cc(/C=C/c2ccc3cc(N(C)C)ccc3[n+]2C)c(C)n1-c1ccccc1 [Pyrvinium pamoate]", 23.7),
]
